- study target: StrepII-tagged ROR1-extracellular domain (human, UniProt Q01973)
- Sequence (Q01973 other isoform, or with tags, fused parts or gaps): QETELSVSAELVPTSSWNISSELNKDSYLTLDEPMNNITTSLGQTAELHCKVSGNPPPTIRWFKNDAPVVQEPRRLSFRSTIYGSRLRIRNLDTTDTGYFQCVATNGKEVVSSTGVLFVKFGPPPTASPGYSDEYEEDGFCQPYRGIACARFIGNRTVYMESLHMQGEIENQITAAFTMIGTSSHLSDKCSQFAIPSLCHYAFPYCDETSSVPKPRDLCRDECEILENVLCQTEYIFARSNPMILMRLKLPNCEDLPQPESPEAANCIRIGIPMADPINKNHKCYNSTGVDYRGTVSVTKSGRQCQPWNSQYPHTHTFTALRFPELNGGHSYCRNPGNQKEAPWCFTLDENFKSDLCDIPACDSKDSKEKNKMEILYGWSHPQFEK
- assay summary: SPR (Biacore T200), IgG from HEK293T supernatant captured by anti-human Fc, ROR1-strep as analyte, 1:1 model
test readout: koff (s⁻¹)
Please give a number only; it is taken to be in s⁻¹.

Recorded results for 3 binders are shown here.
INSERT INTO results (binder, test_value) VALUES
  ('huR12_4, humanized from R12 (antibody, V domains shown) VH: QVQLVESGGELVQPGGSLTLSCKASGFDFSAYYMSWVRQAPGKGLEWIATIYPSSGKTYYAASVQGRFTISADNAKNTVYLQMNSLTAADTATYFCARDSYADDGALFNIWGKGTLVTVSS VL: QLVLTQSPSVSAALGSSAKITCTLSSAHKTDTIDWYQQLAGQAPRYLMYVQSDGSYEKRSGVPDRFSGSASGADRYLAISRVQADDEADYYCGADYIGGYVFGGGTQLTVLG', '9.93e-05'),
  ('huR12_16, humanized from R12 (antibody, V domains shown) VH: QVQLVESGGELVTPGGSLTLSCKASGFDFSAYYMSWVRQAPGKGLEWIASIYPSSGKTYYAAAVQGRFTISADNAKNTVYLQMNSLTAADTATYFCARDSYADDGALFNIWGQGTLVTVSS VL: QLVLTQSPSVSAALGSSAKITCTLSSAHKTDTIDWYQQLAGQAPRYLMYVQSDGSYEKRSGVPDRFSGSSSGADRYLIISSVQADDEADYYCGADYIGGYVFGGGTQLTVG', '8.79e-05'),
  ('huR12_11, humanized from R12 (antibody, V domains shown) VH: QVQLVESGGALVQPGGSLTLSCKASGFDFSAYYMSWVRQAPGKGLEWIATIYPSSGKTYYAASVQGRFTISADNAKNTVYLQMNSLTAADTATYFCARDSYADDGALFNIWGQGTLVTVSS VL: QLVLTQSPSVSAALGSSAKITCTLSSAHKTDTIDWYQQLAGQAPRYLMYVQSDGSYEKRSGVPDRFSGSSSGADRYLIISSVQADDEADYYCGADYIGGYVFGGGTQLTVG', '9.65e-05');

Read the next record carefully.
// field: koff; key: Chimeric mAb R12 (antibody, V domains shown) VH: QEQLVESGGRLVTPGGSLTLSCKASGFDFSAYYMSWVRQAPGKGLEWIATIYPSSGKTYYATWVNGRFTISSDNAQNTVDLQMNSLTAADRATYFCARDSYADDGALFNIWGPGTLVTISS VL: ELVLTQSPSVSAALGSPAKITCTLSSAHKTDTIDWYQQLQGEAPRYLMQVQSDGSYTKRPGVPDRFSGSSSGADRYLIIPSVQADDEADYYCGADYIGGYVFGGGTQLTVT ; value = 0.000361
